Numbers sourced from paper PMC3961306.

biological target: panel of more than 300 wild-type and mutant kinases (313 kinase panel) (Homo sapiens, UniProt Q8IY84); assay: Kinase profiling in a biochemical assay panel (mobility shift assays and ELISA), %-inhibition at 1 μM; selectivity entropy; details: kinase MGC42105; 1 μM
Item-by-item account of %-inhibition of MGC42105
ASSAY_ENDPOINT: %-inhibition of MGC42105 (%)

CPD_SMILES	ASSAY_VALUE
COc1cc2c(Nc3ccc(Br)cc3F)ncnc2cc1OCC1CCN(C)CC1	-17
CCCS(=O)(=O)Nc1ccc(F)c(C(=O)c2c[nH]c3ncc(-c4ccc(Cl)cc4)cc23)c1F	-8
CNC(=O)c1cc(Oc2ccc(NC(=O)Nc3ccc(Cl)c(C(F)(F)F)c3)c(F)c2)ccn1	-22
Cc1ccc(Nc2nccc(N(C)c3ccc4c(C)n(C)nc4c3)n2)cc1S(N)(=O)=O	0.318
CC(=O)Nc1cccc(-n2c(=O)n(C3CC3)c(=O)c3c(Nc4ccc(I)cc4F)n(C)c(=O)c(C)c32)c1	1.39
COc1cc(Nc2c(C#N)cnc3cc(OCCCN4CCN(C)CC4)c(OC)cc23)c(Cl)cc1Cl	32
N#CC[C@H](C1CCCC1)n1cc(-c2ncnc3[nH]ccc23)cn1	-13
CO[C@H]1C[C@@H]2CC[C@@H](C)[C@@](O)(O2)C(=O)C(=O)N2CCCC[C@H]2C(=O)O[C@H]([C@H](C)C[C@@H]2CC[C@@H](OC(=O)C(C)(CO)CO)[C@H](OC)C2)CC(=O)[C@H](C)/C=C(\C)[C@@H](O)[C@@H](OC)C(=O)[C@H](C)C[C@H](C)/C=C/C=C/C=C/1C	-11

====

target: panel of more than 300 wild-type and mutant kinases (313 kinase panel) (Homo sapiens); experiment: Kinase profiling in a biochemical assay panel (mobility shift assays and ELISA), %-inhibition at 1 μM; selectivity entropy; conditions: kinase CaMK1δ; 1 μM compound
Item-by-item account of %-inhibition, CaMK1δ
ASSAY_ENDPOINT: %-inhibition, CaMK1δ (%)

COMPOUND	UNITS	ASSAY_VALUE
CNC(=O)c1cc(Oc2ccc(NC(=O)Nc3ccc(Cl)c(C(F)(F)F)c3)c(F)c2)ccn1 [regorafenib]	%	-5.29
Cc1ccc(Nc2nccc(N(C)c3ccc4c(C)n(C)nc4c3)n2)cc1S(N)(=O)=O [pazopanib]	%	-1.49
CS(=O)(=O)CCNCc1ccc(-c2ccc3ncnc(Nc4ccc(OCc5cccc(F)c5)c(Cl)c4)c3c2)o1 [lapatinib]	%	-4
O=S(=O)(c1cccc2cnccc12)N1CCCNCC1 [fasudil]	%	-4
Cc1cn(-c2cc(NC(=O)c3ccc(C)c(Nc4nccc(-c5cccnc5)n4)c3)cc(C(F)(F)F)c2)cn1 [nilotinib]	%	3.56
CCCS(=O)(=O)Nc1ccc(F)c(C(=O)c2c[nH]c3ncc(-c4ccc(Cl)cc4)cc23)c1F [vemurafenib]	%	-7
CO[C@H]1C[C@@H]2CC[C@@H](C)[C@@](O)(O2)C(=O)C(=O)N2CCCC[C@H]2C(=O)O[C@H]([C@H](C)C[C@@H]2CC[C@@H](OCCO)[C@H](OC)C2)CC(=O)[C@H](C)/C=C(\C)[C@@H](O)[C@@H](OC)C(=O)[C@H](C)C[C@H](C)/C=C/C=C/C=C/1C [everolimus]	%	-8

====

Item-by-item account of %-inhibition of MAPKAPK3
target: panel of more than 300 wild-type and mutant kinases (313 kinase panel) (Homo sapiens, UniProt Q16644); assay: Kinase profiling in a biochemical assay panel (mobility shift assays and ELISA), %-inhibition at 1 μM; selectivity entropy; details: kinase MAPKAPK3; compound at 1 μM
Sequence (Q16644 whole entry, change not shown): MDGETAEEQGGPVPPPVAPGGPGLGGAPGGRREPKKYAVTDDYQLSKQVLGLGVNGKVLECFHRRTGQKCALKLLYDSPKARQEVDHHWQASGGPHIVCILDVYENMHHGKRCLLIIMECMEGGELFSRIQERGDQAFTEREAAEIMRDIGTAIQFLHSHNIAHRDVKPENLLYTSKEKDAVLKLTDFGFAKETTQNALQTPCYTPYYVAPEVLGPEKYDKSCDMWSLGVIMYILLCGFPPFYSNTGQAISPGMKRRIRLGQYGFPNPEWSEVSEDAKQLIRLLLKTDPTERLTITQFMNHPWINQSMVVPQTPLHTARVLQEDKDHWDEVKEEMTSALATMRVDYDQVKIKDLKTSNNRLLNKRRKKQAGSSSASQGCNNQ
ASSAY_ENDPOINT: %-inhibition of MAPKAPK3 (%)

MOLECULE	ASSAY_ENDPOINT	UNITS	ASSAY_VALUE
Cc1cn(-c2cc(NC(=O)c3ccc(C)c(Nc4nccc(-c5cccnc5)n4)c3)cc(C(F)(F)F)c2)cn1 [nilotinib]	%-inhibition of MAPKAPK3	%	2
CCCS(=O)(=O)Nc1ccc(F)c(C(=O)c2c[nH]c3ncc(-c4ccc(Cl)cc4)cc23)c1F [vemurafenib]	%-inhibition of MAPKAPK3	%	12
C[C@@H](Oc1cc(-c2cnn(C3CCNCC3)c2)cnc1N)c1c(Cl)ccc(F)c1Cl [crizotinib]	%-inhibition of MAPKAPK3	%	-13
CO[C@H]1C[C@@H]2CC[C@@H](C)[C@@](O)(O2)C(=O)C(=O)N2CCCC[C@H]2C(=O)O[C@H]([C@H](C)C[C@@H]2CC[C@@H](OCCO)[C@H](OC)C2)CC(=O)[C@H](C)/C=C(\C)[C@@H](O)[C@@H](OC)C(=O)[C@H](C)C[C@H](C)/C=C/C=C/C=C/1C [everolimus]	%-inhibition of MAPKAPK3	%	-15
COc1cc(Nc2c(C#N)cnc3cc(OCCCN4CCN(C)CC4)c(OC)cc23)c(Cl)cc1Cl [bosutinib]	%-inhibition of MAPKAPK3	%	-12
O=S(=O)(c1cccc2cnccc12)N1CCCNCC1 [fasudil]	%-inhibition of MAPKAPK3	%	-14
COc1cc2c(Nc3ccc(Br)cc3F)ncnc2cc1OCC1CCN(C)CC1 [vandetanib]	%-inhibition of MAPKAPK3	%	-2
CNC(=O)c1cc(Oc2ccc(NC(=O)Nc3ccc(Cl)c(C(F)(F)F)c3)c(F)c2)ccn1 [regorafenib]	%-inhibition of MAPKAPK3	%	-15
CC(C)(C)c1nc(-c2cccc(NS(=O)(=O)c3c(F)cccc3F)c2F)c(-c2ccnc(N)n2)s1 [dabrafenib]	%-inhibition of MAPKAPK3	%	-11

====

biological target: panel of more than 300 wild-type and mutant kinases (313 kinase panel) (Homo sapiens, UniProt P80192); test: Kinase profiling in a biochemical assay panel (mobility shift assays and ELISA), %-inhibition at 1 μM; selectivity entropy; settings: kinase MLK1; 1 μM
Sequence (P80192 whole entry, change not shown): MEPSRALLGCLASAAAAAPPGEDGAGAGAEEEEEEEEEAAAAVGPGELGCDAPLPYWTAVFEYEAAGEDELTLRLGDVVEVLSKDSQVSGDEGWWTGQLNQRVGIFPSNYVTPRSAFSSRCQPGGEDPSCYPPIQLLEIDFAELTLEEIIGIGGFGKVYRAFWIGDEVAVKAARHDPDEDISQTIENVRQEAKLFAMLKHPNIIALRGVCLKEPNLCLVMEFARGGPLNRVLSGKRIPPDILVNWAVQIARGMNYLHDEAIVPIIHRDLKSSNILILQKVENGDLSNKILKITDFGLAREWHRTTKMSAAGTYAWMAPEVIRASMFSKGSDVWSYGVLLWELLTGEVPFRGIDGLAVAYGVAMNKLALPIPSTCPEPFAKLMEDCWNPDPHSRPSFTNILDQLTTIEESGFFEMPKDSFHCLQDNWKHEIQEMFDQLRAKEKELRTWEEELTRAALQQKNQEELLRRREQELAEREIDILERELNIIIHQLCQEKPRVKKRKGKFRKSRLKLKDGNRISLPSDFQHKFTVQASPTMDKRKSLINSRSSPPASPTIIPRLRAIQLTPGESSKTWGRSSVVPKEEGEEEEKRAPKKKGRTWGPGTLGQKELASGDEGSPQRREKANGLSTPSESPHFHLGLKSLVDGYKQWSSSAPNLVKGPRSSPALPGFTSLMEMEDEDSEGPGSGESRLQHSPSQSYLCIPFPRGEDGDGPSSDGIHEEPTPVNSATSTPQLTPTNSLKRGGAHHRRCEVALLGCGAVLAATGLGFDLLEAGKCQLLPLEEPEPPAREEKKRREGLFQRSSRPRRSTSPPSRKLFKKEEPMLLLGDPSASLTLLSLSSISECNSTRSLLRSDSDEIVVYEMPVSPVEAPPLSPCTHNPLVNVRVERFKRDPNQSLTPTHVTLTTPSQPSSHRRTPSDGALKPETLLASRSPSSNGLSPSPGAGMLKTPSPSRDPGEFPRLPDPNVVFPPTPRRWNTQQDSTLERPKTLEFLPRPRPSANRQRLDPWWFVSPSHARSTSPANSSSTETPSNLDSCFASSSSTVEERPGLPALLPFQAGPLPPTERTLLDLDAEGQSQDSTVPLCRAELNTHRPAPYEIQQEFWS
ASSAY_ENDPOINT: %-inhibition of MLK1 (%)

COMPOUND	UNITS	ASSAY_VALUE
C[C@@H](Oc1cc(-c2cnn(C3CCNCC3)c2)cnc1N)c1c(Cl)ccc(F)c1Cl	%	2.82
COc1cc2c(Nc3ccc(Br)cc3F)ncnc2cc1OCC1CCN(C)CC1	%	42
CNC(=O)c1cc(Oc2ccc(NC(=O)Nc3ccc(Cl)c(C(F)(F)F)c3)c(F)c2)ccn1	%	-7
COc1cc(Nc2c(C#N)cnc3cc(OCCCN4CCN(C)CC4)c(OC)cc23)c(Cl)cc1Cl	%	93
CC(=O)Nc1cccc(-n2c(=O)n(C3CC3)c(=O)c3c(Nc4ccc(I)cc4F)n(C)c(=O)c(C)c32)c1	%	16
Cc1ccc(C(=O)Nc2ccc(CN3CCN(C)CC3)c(C(F)(F)F)c2)cc1C#Cc1cnc2cccnn12	%	29
N#CC[C@H](C1CCCC1)n1cc(-c2ncnc3[nH]ccc23)cn1	%	53
Cc1cn(-c2cc(NC(=O)c3ccc(C)c(Nc4nccc(-c5cccnc5)n4)c3)cc(C(F)(F)F)c2)cn1	%	-12
COc1cc2nccc(Oc3ccc(NC(=O)C4(C(=O)Nc5ccc(F)cc5)CC4)cc3)c2cc1OC [cabozantinib]	%	20
CCCS(=O)(=O)Nc1ccc(F)c(C(=O)c2c[nH]c3ncc(-c4ccc(Cl)cc4)cc23)c1F	%	10
Cc1ccc(Nc2nccc(N(C)c3ccc4c(C)n(C)nc4c3)n2)cc1S(N)(=O)=O	%	90
CO[C@H]1C[C@@H]2CC[C@@H](C)[C@@](O)(O2)C(=O)C(=O)N2CCCC[C@H]2C(=O)O[C@H]([C@H](C)C[C@@H]2CC[C@@H](OCCO)[C@H](OC)C2)CC(=O)[C@H](C)/C=C(\C)[C@@H](O)[C@@H](OC)C(=O)[C@H](C)C[C@H](C)/C=C/C=C/C=C/1C	%	5
CS(=O)(=O)CCNCc1ccc(-c2ccc3ncnc(Nc4ccc(OCc5cccc(F)c5)c(Cl)c4)c3c2)o1	%	7
O=S(=O)(c1cccc2cnccc12)N1CCCNCC1	%	3.31
CO[C@H]1C[C@@H]2CC[C@@H](C)[C@@](O)(O2)C(=O)C(=O)N2CCCC[C@H]2C(=O)O[C@H]([C@H](C)C[C@@H]2CC[C@@H](OC(=O)C(C)(CO)CO)[C@H](OC)C2)CC(=O)[C@H](C)/C=C(\C)[C@@H](O)[C@@H](OC)C(=O)[C@H](C)C[C@H](C)/C=C/C=C/C=C/1C	%	7.48

====

Target: panel of more than 300 wild-type and mutant kinases (313 kinase panel) (Homo sapiens)
Sequence (P53778 1-367): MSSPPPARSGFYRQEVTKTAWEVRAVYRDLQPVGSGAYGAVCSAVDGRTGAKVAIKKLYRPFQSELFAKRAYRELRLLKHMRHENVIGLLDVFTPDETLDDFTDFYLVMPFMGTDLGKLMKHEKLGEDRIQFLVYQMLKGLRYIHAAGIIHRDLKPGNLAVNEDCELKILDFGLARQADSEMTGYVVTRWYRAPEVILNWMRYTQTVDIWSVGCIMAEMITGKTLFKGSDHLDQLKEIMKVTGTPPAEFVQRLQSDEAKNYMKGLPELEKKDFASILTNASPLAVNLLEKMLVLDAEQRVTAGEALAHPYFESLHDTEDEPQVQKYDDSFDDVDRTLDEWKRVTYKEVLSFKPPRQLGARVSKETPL
Experiment: Kinase profiling in a biochemical assay panel (mobility shift assays and ELISA), %-inhibition at 1 μM; selectivity entropy
Details: kinase p38γ; 1 μM

COMPOUND	%-inhibition of p38γ / %
COc1cc2nccc(Oc3ccc(NC(=O)C4(C(=O)Nc5ccc(F)cc5)CC4)cc3)c2cc1OC [cabozantinib]	23
CCCS(=O)(=O)Nc1ccc(F)c(C(=O)c2c[nH]c3ncc(-c4ccc(Cl)cc4)cc23)c1F [vemurafenib]	-0.299
CC(=O)Nc1cccc(-n2c(=O)n(C3CC3)c(=O)c3c(Nc4ccc(I)cc4F)n(C)c(=O)c(C)c32)c1 [trametinib]	0.684
N#CC[C@H](C1CCCC1)n1cc(-c2ncnc3[nH]ccc23)cn1 [ruxolitinib]	-2.39
